Entry source: patent US10508090B2

- assay.target: human GPR120 (Homo sapiens, UniProt Q5NUL3)
- Construct: expressed in transfected cells; host or cells: CHO-k1
- Sequence (Q5NUL3 whole entry): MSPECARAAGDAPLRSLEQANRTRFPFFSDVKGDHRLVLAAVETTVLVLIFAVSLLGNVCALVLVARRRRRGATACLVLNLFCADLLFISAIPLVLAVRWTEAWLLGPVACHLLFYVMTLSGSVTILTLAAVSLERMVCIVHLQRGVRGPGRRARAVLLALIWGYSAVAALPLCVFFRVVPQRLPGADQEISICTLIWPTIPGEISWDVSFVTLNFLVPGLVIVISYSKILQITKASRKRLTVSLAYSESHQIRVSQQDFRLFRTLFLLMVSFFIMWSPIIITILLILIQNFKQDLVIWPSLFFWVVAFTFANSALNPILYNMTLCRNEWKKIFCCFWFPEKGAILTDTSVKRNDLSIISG
- assay.details: In vitro Ca2+ mobilization, CHO-k1 cells stably expressing human GPR120
- Format: cell-based
- study.conditions: intracellular calcium, CHO-k1 cells expressing human GPR120; read-out: Ca2+ hGPR120 AC50
Consider the following compounds; for each one, report its AC50.

Worked examples, 3 compounds total:
>>> df
                                   compound  measured_result
0  Cc1nnc(NS(=O)(=O)c2cccc(CCCCCCC(=O)O)c2)s1          27.8 µM
1  Cc1cc(F)cc(C)c1NS(=O)(=O)c1ccc(CCCCCCC(=O)O)cc1           4.3 µM
2  O=C(O)CCCCCCc1cccc(S(=O)(=O)Nc2cccc3c(O)cccc23)c1           7.1 µM

I need AC50 for every entry listed below, if you could help.
1. Cc1cc(F)cc(C)c1C(=O)NS(=O)(=O)c1cccc(CCCCCCC(=O)O)c1
2. Cc1cc(O)cc(C)c1NS(=O)(=O)c1cccc(CCCCCCC(=O)O)c1
3. Cc1cc(F)c(-c2ccccc2)cc1NS(=O)(=O)c1cccc(CCCCCCC(=O)O)c1
4. Cc1nc(NS(=O)(=O)c2cccc(CCCCCCC(=O)O)c2)sc1C

["5.9 µM", "9.3 µM", "11.2 µM", "17.4 µM"]

I need AC50 for every entry listed below, if you could help.
1. CC1COC(NS(=O)(=O)c2cccc(CCCCCCC(=O)O)c2)=N1 (stereo not drawn)
2. Cc1cc(C(F)(F)F)cc(C)c1NS(=O)(=O)c1cccc(CCCCCCC(=O)O)c1

16.1 µM
6 µM

----------
- assay.target: human GPR40 (Homo sapiens, UniProt O14842)
- Construct: expressed in transfected cells; host or cells: CHO-k1
- Sequence (O14842 whole entry): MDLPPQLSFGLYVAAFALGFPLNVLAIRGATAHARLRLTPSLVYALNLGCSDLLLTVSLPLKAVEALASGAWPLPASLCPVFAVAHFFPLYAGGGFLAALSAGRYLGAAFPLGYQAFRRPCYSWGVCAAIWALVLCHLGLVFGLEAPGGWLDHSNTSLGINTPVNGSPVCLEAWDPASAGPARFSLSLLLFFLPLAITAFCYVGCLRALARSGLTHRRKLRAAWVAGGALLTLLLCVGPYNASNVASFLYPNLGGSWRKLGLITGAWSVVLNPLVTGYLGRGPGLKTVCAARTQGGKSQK
- assay.details: In vitro Ca2+ mobilization, CHO-k1 cells stably expressing human GPR40
- Assay type: cell-based
- study.conditions: intracellular calcium, CHO-k1 cells expressing human GPR40; read-out: Ca2+ hGPR40 AC50
// NB: equality with 10 µM counts as FALSE; only AC50 strictly below is TRUE

Before answering, review these 3 worked examples.
                                   compound  assigned_category
0  O=C(O)CCCCCCc1cccc(S(=O)(=O)Nc2cc(-c3ccccc3)ns2)c1 [Example 22]              FALSE
1  Cc1cc(O)cc(C)c1NS(=O)(=O)c1cccc(CCCCCCC(=O)O)c1 [Example 31]               TRUE
2  Cc1nnc(NS(=O)(=O)c2cccc(CCCCCCC(=O)O)c2)s1 [Example 18]              FALSE

Hello, is AC50 of the following compound strictly smaller than 10 µM? Cc1n[nH]c(C)c1NS(=O)(=O)c1cccc(CCCCCCC(=O)O)c1 [Example 12]
FALSE

Same read-out for Cc1cc(OCCCS(C)(=O)=O)cc(C)c1NS(=O)(=O)c1cccc(CCCCCCC(=O)O)c1 [Example 35] ?
TRUE

Same read-out for Cc1nnc(C)n1NS(=O)(=O)c1cccc(CCCCCCC(=O)O)c1 [Example 21] ?
TRUE

Same read-out for Cc1cc(F)cc(C)c1NS(=O)(=O)c1cccc(CCCCCCC(=O)O)c1 [Example 1] ?
FALSE

Same read-out for Cc1cc(N(C)C)cc(C)c1NS(=O)(=O)c1cccc(CCCCCCC(=O)O)c1 [Example 5] ?
FALSE

Same read-out for CCn1ncc(NS(=O)(=O)c2cccc(CCCCCCC(=O)O)c2)n1 [Example 26] ?
FALSE

----------
- assay.target: human GPR40 (Homo sapiens, UniProt O14842)
- Construct: expressed in transfected cells; host or cells: CHO-k1
- assay.details: In vitro Ca2+ mobilization, CHO-k1 cells stably expressing human GPR40
- Type: cell-based
- study.conditions: intracellular calcium, CHO-k1 cells expressing human GPR40; read-out: Ca2+ hGPR40 AC50
// NB: equality with 8 µM counts as n; only AC50 strictly below is y

Before answering, review these 6 worked examples.
>>> print(df.to_string())
                                   molecule                              assay_target  assigned_category
0  O=C(O)CCCCCCc1cccc(S(=O)(=O)NC2=NC3CCCCC3N2)c1 (stereo not drawn)  human GPR40 (Homo sapiens, UniProt O14842)                  n
1  Cc1cc(Cl)cc(C)c1NS(=O)(=O)c1cccc(CCCCCCC(=O)O)c1  human GPR40 (Homo sapiens, UniProt O14842)                  n
2  COc1cc(C)c(NS(=O)(=O)c2cccc(CCCCCCC(=O)O)c2)c(C)c1  human GPR40 (Homo sapiens, UniProt O14842)                  y
3  Cc1cc(C)c(CNS(=O)(=O)c2cccc(CCCCCCC(=O)O)c2)c(C)c1  human GPR40 (Homo sapiens, UniProt O14842)                  n
4  O=C(O)CCCCCCc1cccc(S(=O)(=O)Nc2csnc2-c2ccccc2)c1  human GPR40 (Homo sapiens, UniProt O14842)                  n
5  Cc1nc(NS(=O)(=O)c2cccc(CCCCCCC(=O)O)c2)oc1C  human GPR40 (Homo sapiens, UniProt O14842)                  n

Hello, is AC50 of the following molecule strictly smaller than 8 µM? `Cc1cc(F)cc(C)c1NS(=O)(=O)c1ccc(CCCCCCC(=O)O)cc1`
y

Same read-out for CC1COC(NS(=O)(=O)c2cccc(CCCCCCC(=O)O)c2)=N1 (stereo not drawn) ?
y
